Values from ChEMBL document CHEMBL4680302

Study system: Tumor necrosis factor (Homo sapiens)
Sequence (P01375 whole entry, the tested form may be a part): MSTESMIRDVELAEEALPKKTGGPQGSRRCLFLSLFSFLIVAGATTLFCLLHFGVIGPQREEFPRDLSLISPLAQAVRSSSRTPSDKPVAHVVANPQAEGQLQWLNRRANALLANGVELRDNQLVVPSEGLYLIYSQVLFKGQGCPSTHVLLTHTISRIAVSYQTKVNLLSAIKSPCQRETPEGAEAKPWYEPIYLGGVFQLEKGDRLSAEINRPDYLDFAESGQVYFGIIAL
Assay: Inhibition of exogenous human TNFalpha in HEK-Blue-CD40L cells assessed as reduction in TNF-alpha-induced NFkappaB activation incubated for 18 hrs by quanti-blue based SEAP assay
Assay type: cell-based
Give IC50 for every item shown.
Numbers only here, please. The scale is nM.

INPUT: So what's the measured IC50 for this one? "Cc1ccc(C)c(Nc2c(Cl)c(C)nc3ccc(-c4cnc(C(C)(C)O)nc4)cc23)c1"
OUTPUT: 196

INPUT: Give its IC50 value. Item: "C[C@@H](Nc1c(Cl)cnc2ccc(-c3cnc(C(C)(C)O)nc3)cc12)c1ccccc1F"
OUTPUT: 110

INPUT: Fill in the blank: the reported IC50 of CC(Nc1c(Cl)cnc2c(F)cc(-c3cnc(C(C)(C)O)nc3)cc12)c1ccccc1F (racemic) is ____.
OUTPUT: 224

INPUT: Reported IC50 for "C[C@@H](Nc1c(Cl)cnc2ccc(-c3cnc(N4CCN(CC(=O)O)CC4)nc3)cc12)c1ccccc1F" : what is it?
OUTPUT: 115

INPUT: // query IC50 value for entry CC(Nc1c(Cl)cnc2ccc(-c3cnc(C(C)(C)O)nc3)cc12)c1ccccc1C(F)(F)F (racemic)
OUTPUT: 407

INPUT: Name the reported IC50 value associated with the compound "C[C@@H](Nc1c(Cl)cnc2ccc(-c3cnc(C(C)(C)O)nc3)cc12)c1cc(N)ccc1F"
OUTPUT: 41

INPUT: Could you tell me which IC50 is on file for "Cc1ccc(C)c(Nc2c(C)cnc3ccc(-c4cnc(C(C)(C)O)nc4)cc23)c1" ?
OUTPUT: 107

INPUT: Recorded IC50 for "C[C@@H](Nc1c(Cl)cnc2ccc(-c3cnc(C(C)(C)O)nc3)cc12)c1ccccc1" , please?
OUTPUT: 496

INPUT: Sample CC(Nc1c(Cl)cnc2ccc(-c3cnc(C(C)(C)O)nc3)cc12)c1ccccc1F (racemic) — what was its IC50?
OUTPUT: 190

INPUT: Recorded IC50 of CC(Nc1c(Cl)cnc2ccc(-c3cnc(C(C)(C)O)nc3)cc12)c1ccc(F)cc1 (racemic) , please.
OUTPUT: 840

----------
Give IC50 for every item shown.
Study system: Tumor necrosis factor (Homo sapiens)
Assay: Displacement of fluorescent labeled probe from human recombinant His-tagged TNFalpha (77 to 233 residues) expressed in Escherichia coli preincubated for 1 hr followed by fluorogenic probe addition and measured after 3 hrs by HTRF assay
// note: answer is a bare numeric in nM

INPUT: State the recorded IC50 for this entry: "C[C@@H](Nc1c(Cl)cnc2ccc(-c3cnc(C(C)(C)O)nc3)cc12)c1cc(C#N)ccc1F"
OUTPUT: 48

INPUT: If you can, please state the reported IC50 value of CC(Nc1c(Cl)cnc2ccc(-c3cnc(C(C)(C)O)nc3)cc12)c1ccccc1F (racemic) .
OUTPUT: 27

INPUT: Tell me the measured IC50 of "C[C@@H](Nc1c(Cl)cnc2ccc(-c3ccc(S(C)(=O)=O)nc3)cc12)c1ccccc1F" , please.
OUTPUT: 15

INPUT: Would you kindly share the measured IC50 for CC(Nc1c(Cl)cnc2cc(Cl)c(-c3cnc(C(C)(C)O)nc3)cc12)c1ccccc1F (racemic) ?
OUTPUT: 54

INPUT: For the compound "CCOc1ncc(-c2ccc3ncc(Cl)c(N[C@H](C)c4ccccc4F)c3c2)cn1" , what IC50 is on record?
OUTPUT: 15

INPUT: # query: IC50 of entry "Cc1ccc(C)c(Nc2c(Cl)cnc3ccc(Br)cc23)c1"
OUTPUT: 36

INPUT: Entry under review: "C[C@@H](Nc1c(Cl)cnc2ccc(-c3ccc(C(C)(C)O)cc3)cc12)c1ccccc1F" . Reported IC50?
OUTPUT: 47

----------
Kindly state pIC50 for each of the entries shown.
Study system: Tumor necrosis factor (Homo sapiens)
Assay: Displacement of fluorescent labeled probe from human recombinant His-tagged TNFalpha (77 to 233 residues) expressed in Escherichia coli preincubated for 1 hr followed by fluorogenic probe addition and measured after 3 hrs by HTRF assay
# pIC50 is unitless: minus log10 of the molar concentration; print number only

INPUT: For Tumor necrosis factor (Homo sapiens), provide pIC50 of CC(Nc1c(Cl)cnc2c(Cl)cc(-c3cnc(C(C)(C)O)nc3)cc12)c1ccccc1F (racemic) please.
OUTPUT: 6.97

INPUT: Param readout= pIC50; system= Tumor necrosis factor (Homo sapiens); entry= CC(Nc1c(Cl)cnc2ccc(-c3cnc(C(C)(C)O)nc3)nc12)c1ccccc1F (single isomer, unassigned; enantiomer 1) ; returns value.
OUTPUT: 7.41

INPUT: Give the reported pIC50 for CC(Nc1c(Cl)cnc2ccc(-c3cnc(C(C)(C)O)nc3)c(Cl)c12)c1ccccc1F (racemic) (system: Tumor necrosis factor (Homo sapiens)).
OUTPUT: 6.94

INPUT: Identify the measured pIC50 of CC(C)C(Nc1c(Cl)cnc2ccc(-c3cnc(C(C)(C)O)nc3)cc12)c1ccccc1F (racemic) for Tumor necrosis factor (Homo sapiens).
OUTPUT: 7.24

INPUT: GET /values?readout=pIC50&system=Tumor necrosis factor (Homo sapiens)&item= CC(Nc1c(Cl)cnc2ccc(-c3cnc(C(C)(C)O)nc3)nc12)c1ccccc1F (racemic)
OUTPUT: 7.62

----------
Answer each item with its documented remaining at 10 min.
Assay: Metabolic stability in mouse liver microsomes assessed as parent compound remaining after 10 mins
Type: ADME, Microsome
Conditions: read-out: Stabilty
Lab book: enter the figure in %, no units written.

INPUT: Consider the molecule "C[C@@H](Nc1c(Cl)cnc2ccc(-c3cnc(C(C)(C)O)nc3)cc12)c1ccccc1" and give its measured remaining at 10 min.
OUTPUT: 50

INPUT: For the molecule shown here, CC(Nc1c(Cl)cnc2ccc(-c3cnc(C(C)(C)O)nc3)cc12)c1ccccc1C(F)(F)F (racemic) , give the reported remaining at 10 min.
OUTPUT: 49

INPUT: Consider the molecule "C[C@@H](Nc1ccnc2ccc(-c3cnc(C(C)(C)O)nc3)cc12)c1cc(N2CCCC2)ccc1F" and give its measured remaining at 10 min.
OUTPUT: 51
